experiment_summary: Inhibition of Plasmodium falciparum wild type NDH2 expressed in Escherichia coli BL21 using NADH and ubiquinone-1 as substrate by spectrophotometric analysis
property_measured: IC50 (nM)
Use nM as the unit, but write only the number.

IN: Which IC50 value is on record for "Cc1c(-c2ccc(Cc3ccc(OC(F)(F)F)cc3)cc2)[nH]c2cccc(F)c2c1=O" ?
OUT: 3.73

* * *

System: Plasmodium falciparum
experiment_summary: Antimalarial activity against dihydroartemisinin-resistant asexual blood stage Plasmodium falciparum 803 after 72 hrs by SYBR green-based fluorometric analysis
Assay type: functional
condition_summary: Plasmodium falciparum, 803, 72 h
property_measured: pEC50
pEC50 here: minus log base 10 of the concentration, concentration in moles per litre.

IN: Which pEC50 value is on record for "Cc1c(-c2ccc(Cc3ccc(OC(F)(F)F)cc3)cc2)[nH]c2cccc(F)c2c1=O" ?
OUT: 8.25

IN: Which pEC50 value is on record for "Cc1c(-c2ccc(Cc3ccc(SC(F)(F)F)cc3)cc2)[nH]c2cccc(F)c2c1=O" ?
OUT: 8.33
